# Target Entity: recombinant human IDE42-1019 (Homo sapiens)
# Construct: recombinant human IDE42-1019 (R&D Systems); purchased R&D Systems
# Sequence (P14735 42-1019): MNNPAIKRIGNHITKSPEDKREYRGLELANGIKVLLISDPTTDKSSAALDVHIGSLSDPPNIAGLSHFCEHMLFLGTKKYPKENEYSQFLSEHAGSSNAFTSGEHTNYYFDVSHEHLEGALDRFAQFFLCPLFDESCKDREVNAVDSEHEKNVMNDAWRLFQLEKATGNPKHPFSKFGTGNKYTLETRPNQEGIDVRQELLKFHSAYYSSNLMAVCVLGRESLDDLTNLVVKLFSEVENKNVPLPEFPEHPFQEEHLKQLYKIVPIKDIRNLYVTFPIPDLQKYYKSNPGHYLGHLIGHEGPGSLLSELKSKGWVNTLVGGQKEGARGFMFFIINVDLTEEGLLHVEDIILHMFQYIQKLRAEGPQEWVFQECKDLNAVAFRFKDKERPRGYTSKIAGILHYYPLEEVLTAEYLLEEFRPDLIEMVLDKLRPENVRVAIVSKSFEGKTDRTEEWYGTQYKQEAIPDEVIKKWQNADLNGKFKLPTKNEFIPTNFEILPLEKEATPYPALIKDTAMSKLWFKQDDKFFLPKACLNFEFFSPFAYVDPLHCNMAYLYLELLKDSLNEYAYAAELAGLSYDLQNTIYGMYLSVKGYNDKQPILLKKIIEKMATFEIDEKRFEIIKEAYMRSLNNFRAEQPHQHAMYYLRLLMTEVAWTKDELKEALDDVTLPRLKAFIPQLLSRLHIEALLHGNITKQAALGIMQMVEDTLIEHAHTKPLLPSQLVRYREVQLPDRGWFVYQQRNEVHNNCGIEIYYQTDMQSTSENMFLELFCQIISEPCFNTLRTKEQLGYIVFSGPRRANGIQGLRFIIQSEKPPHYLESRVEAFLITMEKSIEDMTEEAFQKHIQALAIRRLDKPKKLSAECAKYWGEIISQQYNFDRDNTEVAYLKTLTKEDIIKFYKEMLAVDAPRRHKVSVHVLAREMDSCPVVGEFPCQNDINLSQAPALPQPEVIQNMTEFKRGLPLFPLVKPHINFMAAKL
# Protocol Summary: Protease assay with fluorogenic peptide substrate Mca-[…](Dnp)-OH
# Type: biochemical
# Conditions: fluorogenic peptide Mca-RPPGFSAFK(Dnp)-OH; plateau at high inhibitor concentration; read-out: Imax (%) Proteolysis (inhibition maximum)
Readout Type: Emax (%)

Consider the following illustrative entries.
Tested on recombinant human IDE42-1019 (Homo sapiens): `CCS(=O)(=O)N1CCCCN2[C@@H](CO)[C@@H](c3ccc(C#Cc4ccccc4OC)cc3)[C@@H]2C1` . Observed Emax: 90

Tested on recombinant human IDE42-1019 (Homo sapiens): `Cc1ccccc1-c1ccc([C@@H]2[C@@H](CO)N3CCCCN(S(=O)(=O)c4ccc(F)cc4)C[C@@H]23)cc1` . Observed Emax: 40

Tested on recombinant human IDE42-1019 (Homo sapiens): `Cc1ccccc1-c1ccc([C@@H]2[C@H](CO)N3CCCCN(C(=O)NC4CCCC4)C[C@@H]23)cc1` . Observed Emax: 90

Tested on recombinant human IDE42-1019 (Homo sapiens): `CCC(=O)N1[C@H](CO)[C@H](c2ccc(-c3ccccc3OC)cc2)[C@@H]1CNC(C)=O` . Observed Emax: 50

Tested on recombinant human IDE42-1019 (Homo sapiens): `Cc1ccccc1-c1ccc([C@@H]2[C@@H](CO)N3C(=O)CN(C(=O)Cc4ccccn4)C[C@@H]23)cc1` . Observed Emax: 50

Tested on recombinant human IDE42-1019 (Homo sapiens): `CCCNC(=O)N1CC(=O)N2[C@H](CO)[C@@H](c3ccc(-c4cccc(C)c4)cc3)[C@@H]2C1` . Observed Emax: 60

Tested on recombinant human IDE42-1019 (Homo sapiens): `COc1ccccc1-c1ccc([C@@H]2[C@@H](C#N)N(C(=O)CN(C)C)[C@H]2CO)cc1` . Observed Emax: 70

Tested on recombinant human IDE42-1019 (Homo sapiens): `Cc1ccccc1-c1ccc([C@@H]2[C@@H](CO)N3CCCCN(S(=O)(=O)c4ccccc4C)C[C@@H]23)cc1` . Observed Emax: 65

1 = Cc1ccccc1-c1ccc([C@@H]2[C@H]3CN(C(=O)c4cccnc4)CC(=O)N3[C@H]2CO)cc1
2 = Cc1cccc(-c2ccc([C@@H]3[C@@H](CO)N4CCCCN(C(=O)NC(C)C)C[C@@H]34)cc2)c1
Q. Hi there, can you help? I need to know whether 1 or 2 has lower measured Emax. Your choice should be expressed through its label.
A. 2
(2: 30%, 1: 70%)
